Catalogue of compounds with associated solubility (solute concentration completely dissolved)
Assay: Evaluation of solubility in organic solvents (visual observation of complete dissolution)
Type: physicochemical
Conditions: mesitylene, 130° C.
parameter: solubility (solute concentration completely dissolved)

compound: FC(F)(F)c1cc(-c2ccc(-c3c4c(c(-c5ccc(-c6cc(C(F)(F)F)cc(C(F)(F)F)c6)s5)c5nsnc35)N=S=N4)s2)cc(C(F)(F)F)c1 [Compound (C3)]
recorded.measurement: ≥ 0.1 wt %
//
compound: FC(F)(F)Oc1cccc(-c2ccc(-c3c4c(c(-c5ccc(-c6cccc(OC(F)(F)F)c6)s5)c5nsnc35)N=S=N4)s2)c1 [Compound (C1)]
recorded.measurement: ≥ 0.3 wt %
//
compound: FC(F)(F)c1ccc(-c2ccc(-c3c4c(c(-c5ccc(-c6ccc(C(F)(F)F)cc6)s5)c5nsnc35)N=S=N4)s2)cc1 [Compound (RC2), reference compound]
recorded.measurement: < 0.3 wt %
//
compound: FC(F)(F)Sc1ccc(-c2ccc(-c3c4c(c(-c5ccc(-c6ccc(SC(F)(F)F)cc6)s5)c5nsnc35)N=S=N4)s2)cc1 [Compound (RC5), reference compound]
recorded.measurement: < 0.3 wt %
//
compound: FC(F)(F)Sc1cccc(-c2ccc(-c3c4c(c(-c5ccc(-c6cccc(SC(F)(F)F)c6)s5)c5nsnc35)N=S=N4)s2)c1 [Compound (C6)]
recorded.measurement: ≥ 0.3 wt %
//
compound: CCCCCCc1cc(-c2ccc(-c3c4c(c(-c5ccc(-c6ccc(OC(F)(F)F)c(CCCCCC)c6)s5)c5nsnc35)N=S=N4)s2)ccc1OC(F)(F)F [Compound (C12)]
recorded.measurement: ≥ 0.5 wt %

---

Test: Evaluation of solubility in organic solvents (visual observation of complete dissolution)
Assay type: physicochemical
Details: ortho-dichlorobenzene, 100° C.
We begin with a simple list: items and their reported solubility (solute concentration completely dissolved).
parameter: solubility (solute concentration completely dissolved)

molecule: FC(F)(F)c1cc(-c2ccc(-c3c4c(c(-c5ccc(-c6cc(C(F)(F)F)cc(C(F)(F)F)c6)s5)c5nsnc35)N=S=N4)s2)cc(C(F)(F)F)c1 [Compound (C3)]
recorded.measurement: ≥ 0.1 wt %

molecule: FC(F)(F)Sc1ccc(-c2ccc(-c3c4c(c(-c5ccc(-c6ccc(SC(F)(F)F)cc6)s5)c5nsnc35)N=S=N4)s2)cc1 [Compound (RC5), reference compound]
recorded.measurement: < 0.03 wt %

molecule: CCCCCCc1cc(-c2ccc(-c3c4c(c(-c5ccc(-c6ccc(C(F)(F)F)c(CCCCCC)c6)s5)c5nsnc35)N=S=N4)s2)ccc1C(F)(F)F [Compound (C10)]
recorded.measurement: ≥ 0.5 wt %

molecule: FC(F)(F)Oc1ccc(-c2ccc(-c3c4c(c(-c5ccc(-c6ccc(OC(F)(F)F)cc6)s5)c5nsnc35)N=S=N4)s2)cc1 [Compound (RC1), reference compound]
recorded.measurement: < 0.03 wt %

molecule: FC(F)(F)c1cccc(-c2ccc(-c3c4c(c(-c5ccc(-c6cccc(C(F)(F)F)c6)s5)c5nsnc35)N=S=N4)s2)c1 [Compound (C2)]
recorded.measurement: ≥ 0.5 wt %

molecule: FC(F)(F)c1ccc(-c2ccc(-c3c4c(c(-c5ccc(-c6ccc(C(F)(F)F)cc6)s5)c5nsnc35)N=S=N4)s2)cc1 [Compound (RC2), reference compound]
recorded.measurement: < 0.03 wt %

---

Assay: Evaluation of solubility in organic solvents (visual observation of complete dissolution)
Format: physicochemical
Conditions: mesitylene, 25° C.
parameter: solubility (solute concentration completely dissolved)

compound: CCCCC(CC)Cc1ccc(-c2ccc(-c3c4c(c(-c5ccc(-c6ccc(CC(CC)CCCC)c(C(F)(F)F)c6)s5)c5nsnc35)N=S=N4)s2)cc1C(F)(F)F (stereo not drawn) [Compound (C31)]
recorded.measurement: ≥ 0.3 wt %

compound: FC(F)(F)c1ccccc1-c1ccc(-c2c3c(c(-c4ccc(-c5ccccc5C(F)(F)F)s4)c4nsnc24)N=S=N3)s1 [Compound (RR2), reference compound]
recorded.measurement: ≥ 0.1 wt %

compound: CCCCCCCCCCC(F)(F)c1cccc(-c2ccc(-c3c4c(c(-c5ccc(-c6cccc(C(F)(F)CCCCCCCCCC)c6)s5)c5nsnc35)N=S=N4)s2)c1 [Compound (C4)]
recorded.measurement: ≥ 0.03 wt %

compound: CCCCCCc1cc(-c2ccc(-c3c4c(c(-c5ccc(-c6ccc(C(F)(F)F)c(CCCCCC)c6)s5)c5nsnc35)N=S=N4)s2)ccc1C(F)(F)F [Compound (C10)]
recorded.measurement: ≥ 0.03 wt %

compound: CCCCCCc1ccc(-c2ccc(-c3c4c(c(-c5ccc(-c6ccc(CCCCCC)c(C(F)(F)F)c6)s5)c5nsnc35)N=S=N4)s2)cc1C(F)(F)F [Compound (C9)]
recorded.measurement: ≥ 0.03 wt %

compound: FC(F)(F)c1cccc(-c2ccc(-c3c4c(c(-c5ccc(-c6cccc(C(F)(F)F)c6)s5)c5nsnc35)N=S=N4)s2)c1 [Compound (C2)]
recorded.measurement: ≥ 0.03 wt %

---

Assay: Evaluation of solubility in organic solvents (visual observation of complete dissolution)
Type: physicochemical
Details: mesitylene, 80° C.
parameter: solubility (solute concentration completely dissolved)

molecule: FC(F)(F)Oc1ccccc1-c1ccc(-c2c3c(c(-c4ccc(-c5ccccc5OC(F)(F)F)s4)c4nsnc24)N=S=N3)s1 [Compound (RR1), reference compound]
recorded.measurement: ≥ 0.1 wt %

molecule: CCCCCCc1cc(-c2ccc(-c3c4c(c(-c5ccc(-c6ccc(OC(F)(F)F)c(CCCCCC)c6)s5)c5nsnc35)N=S=N4)s2)ccc1OC(F)(F)F [Compound (C12)]
recorded.measurement: ≥ 0.1 wt %

molecule: FC(F)(F)Oc1cccc(-c2ccc(-c3c4c(c(-c5ccc(-c6cccc(OC(F)(F)F)c6)s5)c5nsnc35)N=S=N4)s2)c1 [Compound (C1)]
recorded.measurement: ≥ 0.1 wt %

molecule: CCCCC(CC)Cc1cc(-c2ccc(-c3c4c(c(-c5ccc(-c6ccc(C(F)(F)F)c(CC(CC)CCCC)c6)s5)c5nsnc35)N=S=N4)s2)ccc1C(F)(F)F (stereo not shown) [Compound (C30)]
recorded.measurement: ≥ 0.3 wt %

---

Assay: Evaluation of solubility in organic solvents (visual observation of complete dissolution)
Format: physicochemical
Details: toluene, 60° C.
parameter: solubility (solute concentration completely dissolved)

smiles.representation: CCCCCCc1ccc(-c2ccc(-c3c4c(c(-c5ccc(-c6ccc(CCCCCC)c(C#N)c6)s5)c5nsnc35)N=S=N4)s2)cc1C#N
recorded.measurement: ≥ 0.1 wt %
//
smiles.representation: CCCCCCCCCCCCc1cc(-c2ccc(-c3c4c(c(-c5ccc(-c6ccc(C(F)(F)F)c(CCCCCCCCCCCC)c6)s5)c5nsnc35)N=S=N4)s2)ccc1C(F)(F)F
recorded.measurement: ≥ 0.3 wt %
//
smiles.representation: CCCCCCCCCCC(F)(F)c1cccc(-c2ccc(-c3c4c(c(-c5ccc(-c6cccc(C(F)(F)CCCCCCCCCC)c6)s5)c5nsnc35)N=S=N4)s2)c1
recorded.measurement: ≥ 0.1 wt %
//
smiles.representation: CCCCCCCCc1cc(-c2ccc(-c3c4c(c(-c5ccc(-c6ccc(C(F)(F)F)c(CCCCCCCC)c6)s5)c5nsnc35)N=S=N4)s2)ccc1C(F)(F)F
recorded.measurement: ≥ 0.3 wt %
//
smiles.representation: CCCCCCc1ccc(-c2ccc(-c3c4c(c(-c5ccc(-c6ccc(CCCCCC)c(OC(F)(F)F)c6)s5)c5nsnc35)N=S=N4)s2)cc1OC(F)(F)F
recorded.measurement: ≥ 0.1 wt %

---

Test: Evaluation of solubility in organic solvents (visual observation of complete dissolution)
Format: physicochemical
Settings: chlorobenzene, 60° C.
Here the recorded solubility (solute concentration completely dissolved) is given for each entry.
parameter: solubility (solute concentration completely dissolved)

compound: CCCCCCc1ccc(-c2ccc(-c3c4c(c(-c5ccc(-c6ccc(CCCCCC)c(C#N)c6)s5)c5nsnc35)N=S=N4)s2)cc1C#N [Compound (C7)]
recorded.measurement: ≥ 0.5 wt %

compound: CCCCCCCCCCC(F)(F)c1ccc(-c2ccc(-c3c4c(c(-c5ccc(-c6ccc(C(F)(F)CCCCCCCCCC)cc6)s5)c5nsnc35)N=S=N4)s2)cc1 [Compound (RC3), reference compound]
recorded.measurement: < 0.03 wt %

compound: CCCCCCc1cc(-c2ccc(-c3c4c(c(-c5ccc(-c6ccc(C(F)(F)F)c(CCCCCC)c6)s5)c5nsnc35)N=S=N4)s2)ccc1C(F)(F)F [Compound (C10)]
recorded.measurement: ≥ 0.1 wt %

compound: CCCCCCCCCc1cc(-c2ccc(-c3c4c(c(-c5ccc(-c6ccc(C#N)c(CCCCCCCCC)c6)s5)c5nsnc35)N=S=N4)s2)ccc1C#N [Compound (C15)]
recorded.measurement: ≥ 0.3 wt %

compound: CCCCCCc1ccc(-c2ccc(-c3c4c(c(-c5ccc(-c6ccc(CCCCCC)c(OC(F)(F)F)c6)s5)c5nsnc35)N=S=N4)s2)cc1OC(F)(F)F [Compound (C11)]
recorded.measurement: ≥ 0.1 wt %

compound: CCCCCCc1cc(-c2ccc(-c3c4c(c(-c5ccc(-c6ccc(OC(F)(F)F)c(CCCCCC)c6)s5)c5nsnc35)N=S=N4)s2)ccc1OC(F)(F)F [Compound (C12)]
recorded.measurement: ≥ 0.1 wt %
